Can you tell me pIC50 for the items I'm about to list?
# System: 14C-5-HT-uptake in rabbit blood platelets
# protocolSummary: Inhibition of 14C-5-HT-uptake in rabbit blood platelets in vitro
# Assay type: cell-based
# experimentalSetup: Oryctolagus cuniculus, Platelet, pH 7.2, read-out: C14 5-HT uptake inhibitory concentration IC50
One number for each entry, as −log10 of the molar value.

Some compounds with recorded pIC50:
INSERT INTO measurements (compound, endpointname, numericvalue) VALUES
  ('CN(C)CCCC1(c2ccc(Cl)cc2)OCc2cc(F)ccc21 (stereo not drawn)', 'pIC50', 7.80),
  ('CN(C)CCCC1(c2ccc(F)cc2)OCc2cc(Cl)ccc21 (stereo not drawn)', 'pIC50', 7.68);

Parameters: items (list). Returns: pIC50 for each item.
1. CN(C)CCCC1(c2ccc(Cl)cc2)OCc2cc(C#N)ccc21 (stereo not drawn)
2. CN(C)CCCN1c2ccccc2CCc2ccccc21 [Imipramine, reference compound]
3. CN(C)CCCC1(c2ccc(Cl)cc2)OCc2cc(Cl)ccc21 (stereo not drawn)
4. CN(C)CCCC1(c2ccc(C#N)cc2)OCc2cc(C(F)(F)F)ccc21 (stereo not drawn)
5. CN(C)CCCC1(c2ccc(F)cc2)OCc2cc(Br)ccc21 (stereo not drawn)
6. CN(C)CCCC1(c2ccc(C#N)cc2)OCc2cc(C#N)ccc21 (stereo not drawn)
7. CN(C)CCCC1(c2ccc(F)cc2)OCc2cc(F)ccc21 (stereo not drawn)
8. CCC(=O)c1ccc2c(c1)COC2(CCCN(C)C)c1ccc(Cl)cc1 (stereo not drawn)

Out:
[7.77, 6.41, 7.70, 7.54, 7.51, 7.54, 7.47, 7.82]

Quick request: pIC50 for each listed item, please.
1. CN(C)CCCC1(c2ccc(C#N)cc2)OCc2cc(Cl)ccc21 (stereo not drawn)
2. CN(C)CCCC1(c2ccc(Cl)cc2)OCc2cc(Br)ccc21 (stereo not drawn)

Out:
1. 7.54
2. 7.66

---

Could you please report measured ED50 for the items listed next?
# Tested on: 5-hydroxytryptophan
# protocolSummary: 5-hydroxytryptophan potentiation
# Assay type: in vivo, mice
# experimentalSetup: Mus musculus, ip, 0.25 h, read-out: 5HTP pot. ED50
Numbers only, in mg/kg.

INSERT INTO assay_data (molecule, numericvalue) VALUES
  ('CN(C)CCCN1c2ccccc2CCc2ccc(Cl)cc21 [Chlorimipramine, reference compound]', 3.9);

Lab note: next molecule to report on.
In: Looking for the measured ED50 of CN(C)CCCN1c2ccccc2CCc2ccccc21 [Imipramine, reference compound] , can you help?
Out: 13

---

# Tested on: tryptophan
# protocolSummary: Tryptophan potentiation
# Assay type: in vivo
# experimentalSetup: Mus musculus, ip, mice; nialamide 100 mg/kg p.o. pretreatment; tryptophan 100 mg/kg i.v.; half maximal score; read-out: Tryptophan pot. ED50
Exercise: state measured ED50 for each of the compounds provided.

As a guide, the following entries are already answered.
INSERT INTO results (compound, result) VALUES
  ('CN(C)CCCC1(c2ccc(F)cc2)OCc2cc(Cl)ccc21 (centres unmarked)', '1.9 mg/kg'),
  ('CCC(=O)c1ccc2c(c1)COC2(CCCN(C)C)c1ccc(Cl)cc1 (centres unmarked)', '3.4 mg/kg'),
  ('CN(C)CCCC1(c2ccc(Cl)cc2)OCc2cc(Cl)ccc21 (centres unmarked)', '1.6 mg/kg'),
  ('CN(C)CCCC1(c2ccc(F)cc2)OCc2cc(Br)ccc21 (centres unmarked)', '3.4 mg/kg');

Now for another entry.
In: So what does the record say about ED50 for CN(C)CCCC1(c2ccc(Cl)cc2)OCc2cc(C(F)(F)F)ccc21 (centres unmarked) ?
Out: 0.8 mg/kg

---

# System: 3H-NA uptake in mouse atria
# protocolSummary: Inhibition of 3H-NA uptake in mouse atria in vitro
# Assay type: cell-based
# experimentalSetup: mouse atria; 3H-NA 10^-7 M, pH 7.4, 37° C.; read-out: 3H-Na uptake in vitro IC50
For each entry below, report its IC50 value.

INSERT INTO measurements (compound, endpointname, result) VALUES
  ('CN(C)CCCC1(c2ccc(C#N)cc2)OCc2cc(C#N)ccc21 (stereo not shown)', 'IC50', '> 10 µM'),
  ('CCC(=O)c1ccc2c(c1)COC2(CCCN(C)C)c1ccc(Cl)cc1 (stereo not shown)', 'IC50', '11 µM'),
  ('CN(C)CCCC1(c2ccc(Cl)cc2)OCc2cc(F)ccc21 (stereo not shown)', 'IC50', '13 µM');

Dear reader, for each entry below, please note its IC50.
1. CN(C)CCCC1(c2ccc(Cl)cc2)OCc2cc(Br)ccc21 (stereo not shown)
2. CN(C)CCCC1(c2ccc(Cl)cc2)OCc2cc(Cl)ccc21 (stereo not shown)
3. CN(C)CCCC1(c2ccc(F)cc2)OCc2cc(Br)ccc21 (stereo not shown)
4. CN(C)CCCC1(c2ccc(F)cc2)OCc2cc(F)ccc21 (stereo not shown)
5. CN(C)CCCC1(c2ccc(C#N)cc2)OCc2cc(C(F)(F)F)ccc21 (stereo not shown)
6. CN(C)CCCC1(c2ccc(Cl)cc2)OCc2cc(C#N)ccc21 (stereo not shown)
7. CN(C)CCCC1(c2ccc(F)cc2)OCc2cc(Cl)ccc21 (stereo not shown)

Out:
["49 µM", "16 µM", "22 µM", "13 µM", "27 µM", "23 µM", "> 10 µM"]

---

# Test system: tryptophan
# protocolSummary: Tryptophan potentiation
# Assay type: in vivo
# experimentalSetup: Mus musculus, ip, mice; nialamide 100 mg/kg p.o. pretreatment; tryptophan 100 mg/kg i.v.; half maximal score; read-out: Tryptophan pot. ED50
# Experimental: The 5-hydroxytryptophan potentiation test was performed essentially as described by Carlsson et al.: "Brain Research" 12. […] An unpretreated group served as control. […] If the animals have been pretreated with a substance which inhibits the re-uptake of 5-hydroxytryptamine, a characteristic syndrome will occur. This consists of the following symptoms: (1) excitation, (2) tremor, and (3) abduction of the hind limbs. […]
Threshold 2 mg/kg: ED50 strictly smaller gives label 1, otherwise label 0.

INSERT INTO assay_data (compound, grouplabel) VALUES
  ('CN(C)CCCC1(c2ccc(F)cc2)OCc2cc(C(F)(F)F)ccc21 (centres unmarked) [Lu 12-012]', 'label 1'),
  ('CN(C)CCCC1(c2ccc(Cl)cc2)OCc2cc(C#N)ccc21 (centres unmarked) [Lu 10-202]', 'label 1'),
  ('CN(C)CCCC1(c2ccc(F)cc2)OCc2cc(F)ccc21 (centres unmarked) [Lu 12-166]', 'label 1'),
  ('CN(C)CCCC1(c2ccc(C(F)(F)F)cc2)OCc2cc(Cl)ccc21 (centres unmarked) [Lu 9-269]', 'label 1'),
  ('CN(C)CCCC1(c2ccc(C#N)cc2)OCc2cc(Cl)ccc21 (centres unmarked) [Lu 10-059]', 'label 1');

--- query ---
In: Please let me know if CN(C)CCCC1(c2ccc(C#N)cc2)OCc2cc(C(F)(F)F)ccc21 (centres unmarked) [Lu 10-047] shows ED50 below 2 mg/kg.
Out: label 0

---

# Tested on: tryptophan
# protocolSummary: Tryptophan potentiation
# Format: in vivo
# experimentalSetup: Mus musculus, ip, mice; nialamide 100 mg/kg p.o. pretreatment; tryptophan 100 mg/kg i.v.; half maximal score; read-out: Tryptophan pot. ED50
Could you please report measured ED50 for the items listed next?
One number for each entry, in mg/kg.

Example compounds with recorded ED50:
INSERT INTO measurements (compound, numericvalue) VALUES
  ('CN(C)CCCC1(c2ccc(Cl)cc2)OCc2cc(Br)ccc21 (centres unmarked)', 4.6),
  ('CN(C)CCCC1(c2ccc(F)cc2)OCc2cc(C#N)ccc21 (centres unmarked)', 0.9);

Dear colleague, could you please provide ED50 for the compounds listed below?
1. CN(C)CCCC1(c2ccc(C#N)cc2)OCc2cc(C#N)ccc21 (centres unmarked)
2. CN(C)CCCC1(c2ccc(Cl)cc2)OCc2cc(F)ccc21 (centres unmarked)

Out:
1. 0.4
2. 7.2

The reported measurements were obtained from patent US4136193A.
